# TARGET: D-2 receptor (Rattus norvegicus, UniProt P61169)
# Construct: Striatal tissue was excised, pooled, and homogenized
# Sequence (P61169 whole entry): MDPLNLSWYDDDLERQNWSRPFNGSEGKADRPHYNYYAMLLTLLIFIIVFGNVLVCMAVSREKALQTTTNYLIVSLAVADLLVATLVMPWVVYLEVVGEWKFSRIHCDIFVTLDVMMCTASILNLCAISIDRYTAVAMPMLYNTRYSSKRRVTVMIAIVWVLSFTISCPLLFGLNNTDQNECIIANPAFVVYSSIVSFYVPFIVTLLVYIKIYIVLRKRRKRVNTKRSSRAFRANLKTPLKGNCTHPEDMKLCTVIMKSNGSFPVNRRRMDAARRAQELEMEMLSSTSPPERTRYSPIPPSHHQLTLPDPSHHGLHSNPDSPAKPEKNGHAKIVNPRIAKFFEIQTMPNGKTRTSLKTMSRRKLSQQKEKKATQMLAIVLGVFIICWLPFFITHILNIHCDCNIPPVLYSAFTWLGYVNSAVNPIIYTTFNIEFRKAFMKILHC
# EXPERIMENT NOTES: Competitive inhibition assay, 3H-spiperone binding to rat striatal tissue (D-2)
# RUN PARAMETERS: rat striatal homogenate, 0.2 nM 3H-spiperone, pH 7.4, 37° C., 15 minutes, read-out: Ki against 3H-spiperone
# Text: Many compounds capable of effecting reproducible physiological changes in neural tissues are believed to operate by binding at one or more receptor sites. A methodology for characterization of binding and an interpretation of the data are described by Billard et al., Life Sciences 35, 1885 (1984) in which the binding of (R)-(+)-7-chloro-8-hydroxy-3-methyl-1-phenyl-2,3,4,5-tetrahydro-1H-3-benzazepine (SCH 23390) (as its hemi-maleate) to the dopamine D-1 receptor is characterized. […]
Measured pKi, listed per entry.
Reminder that pKi means the negative base-10 logarithm of the concentration expressed in mol/L.

CC1=C([C@@H]2CN(C)CCc3cc(Cl)c(O)cc32)CCC1 ... 5.43

Q: # return recorded pKi for input CC1=C([C@H]2CN(C)CCc3cc(Cl)c(O)cc32)CCC1
Result: 6.45

Q: Return pKi (reported value) for this molecule: CN1CCc2cc(Cl)c(O)cc2C(C2=CCCC2)C1 (racemic)
Result: 6.23

Q: In one line, give reported pKi of the entry CC(C)=C(C)C1CN(C)CCc2cc(Cl)c(O)cc21 (stereo not shown) .
Result: 6.26
